Experimental target: T1, human TMEM106B (human, UniProt Q9NUM4 2-274)
T1 construct: full-length, transiently expressed on HEK293 cells, or natively expressed on HeLa, U251 and A549 cells (the cell is named under assay); also the source of the Pepscan peptides; also called huTMEM106B; huTMEM
Test protocol: FACS HEK+huTMEM 10 ug/ml;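 note: flow cytometric binding of purified mouse IgG antibodies to HEK293 cells transiently expressing human TMEM106B, read as median fluorescence intensity on live cells with propidium iodide-positive cells excluded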
Measured property: MFI (MFI)
Numbers only, in MFI.

TM-35 (antibody, V domains shown) VH: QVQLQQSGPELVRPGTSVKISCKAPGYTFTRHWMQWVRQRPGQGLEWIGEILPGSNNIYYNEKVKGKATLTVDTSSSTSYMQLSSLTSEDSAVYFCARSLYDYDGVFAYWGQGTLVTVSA VL: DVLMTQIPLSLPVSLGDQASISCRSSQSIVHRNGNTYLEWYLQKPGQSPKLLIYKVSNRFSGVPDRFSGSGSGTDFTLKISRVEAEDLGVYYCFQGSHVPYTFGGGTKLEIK : 48700
TM-26 (antibody, V domains shown) VH: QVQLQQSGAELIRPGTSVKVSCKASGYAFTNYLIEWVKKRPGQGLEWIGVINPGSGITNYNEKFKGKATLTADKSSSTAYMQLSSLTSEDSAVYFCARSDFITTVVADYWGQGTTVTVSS VL: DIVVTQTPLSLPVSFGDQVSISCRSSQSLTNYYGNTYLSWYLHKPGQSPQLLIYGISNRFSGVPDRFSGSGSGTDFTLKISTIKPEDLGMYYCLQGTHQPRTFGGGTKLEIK : 3850
TM-31 (antibody, V domains shown, mouse IgG (hybridoma)) VH: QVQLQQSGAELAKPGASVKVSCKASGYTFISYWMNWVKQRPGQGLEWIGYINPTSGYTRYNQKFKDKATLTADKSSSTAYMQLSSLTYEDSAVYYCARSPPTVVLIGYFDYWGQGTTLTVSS VL: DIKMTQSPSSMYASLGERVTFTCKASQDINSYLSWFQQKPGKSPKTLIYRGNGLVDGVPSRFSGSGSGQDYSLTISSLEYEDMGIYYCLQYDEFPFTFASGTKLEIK : 6060
TM-25 (antibody, V domains shown) VH: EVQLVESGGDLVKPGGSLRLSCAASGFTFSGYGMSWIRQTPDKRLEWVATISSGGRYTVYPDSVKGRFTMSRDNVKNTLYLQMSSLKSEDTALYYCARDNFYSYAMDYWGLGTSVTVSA VL: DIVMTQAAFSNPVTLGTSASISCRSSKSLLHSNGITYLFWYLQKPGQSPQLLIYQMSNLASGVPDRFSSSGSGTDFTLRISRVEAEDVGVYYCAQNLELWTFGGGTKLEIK : 60300

Now take the following binder into account.
Exercise: State, in one line, measured MFI of TM-49 (antibody, V domains shown, mouse IgG (hybridoma)) VH: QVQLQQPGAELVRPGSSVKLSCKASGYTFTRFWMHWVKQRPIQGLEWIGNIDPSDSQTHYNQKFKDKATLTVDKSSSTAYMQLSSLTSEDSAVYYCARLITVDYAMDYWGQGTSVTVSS VL: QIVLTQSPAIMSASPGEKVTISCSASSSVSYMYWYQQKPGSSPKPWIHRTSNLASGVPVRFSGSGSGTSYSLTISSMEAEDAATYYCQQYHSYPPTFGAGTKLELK
Solution: 16500
